# MEASUREMENT_DESCRIPTION: Dissociation constant with dimeric 16S rRNA RNA construct B

CHEMICAL_SMILES	Kd, nM
NC[C@@H]1O[C@H](O[C@H]2[C@@H](O)[C@H](O[C@@H]3[C@@H](O)[C@H](N)C[C@H](N)[C@H]3O[C@H]3O[C@H](CN)[C@@H](O)[C@H](O)[C@H]3N)O[C@@H]2CO)[C@H](N)[C@@H](O)[C@@H]1O	350

* * *

# MEASUREMENT_DESCRIPTION: Dissociation constant with dimeric 16S rRNA RNA construct B
Attribute: Kd

COMPOUND	Kd / nM
NC[C@@H]1O[C@H](O[C@H]2[C@@H](O)[C@H](O[C@H]3[C@H](O)[C@@H](N)C[C@@H](N)[C@@H]3O[C@H]3O[C@H](CN)[C@@H](O)[C@H](O)[C@H]3N)O[C@@H]2CSCCOCCSCC(O)CN2C(=O)c3ccc4c5c(ccc(c35)C2=O)C(=O)N(CC(O)CSCCOCCSC[C@H]2O[C@H](O[C@@H]3[C@@H](O)[C@H](O[C@H]5O[C@H](CN)[C@@H](O)C[C@H]5N)[C@@H](N)C[C@H]3N)[C@H](O)[C@@H](N)[C@@H]2O)C4=O)[C@H](N)[C@@H](O)[C@@H]1O (some centres not stated)	150
NCC1O[C@H](O[C@H]2[C@@H](O)[C@H](O[C@H]3[C@H](O)[C@@H](N)C[C@@H](N)[C@@H]3O[C@H]3O[C@H](CN)[C@@H](O)[C@H](O)[C@H]3N)O[C@@H]2CSCCOCCSSCCOCCSC[C@H]2O[C@@H](O[C@H]3[C@H](O)[C@@H](N)C[C@@H](N)[C@@H]3O[C@H]3O[C@H](CN)[C@@H](O)[C@H](O)[C@H]3N)[C@H](O)[C@@H]2O[C@@H]2OC(CN)[C@H](O)[C@@H](O)[C@@H]2N)[C@H](N)[C@@H](O)[C@@H]1O (some centres not stated)	20

* * *

# MEASUREMENT_DESCRIPTION: Dissociation constant with dimeric 16S rRNA RNA construct B
pKd: −log10 of the molar value.
pKd by entry:

COMPOUND	pKd
NC[C@H]1O[C@H](O[C@H]2[C@H](O)[C@@H](O[C@H]3O[C@H](CSCCOCCSCC(O)CN4C(=O)c5ccc6c7c(ccc(c57)C4=O)C(=O)N(CC(O)CSCCOCCSC[C@H]4O[C@H](O[C@@H]5[C@@H](O)[C@H](O[C@H]7O[C@H](CN)[C@@H](O)C[C@H]7N)[C@@H](N)C[C@H]5N)[C@H](O)[C@@H](N)[C@@H]4O)C6=O)[C@@H](O)[C@H](N)[C@H]3O)[C@H](N)C[C@@H]2N)[C@H](N)C[C@@H]1O (some centres undefined)	5.95
NCC1O[C@H](O[C@H]2[C@@H](O)[C@H](O[C@H]3[C@H](O)[C@@H](N)C[C@@H](N)[C@@H]3O[C@H]3O[C@H](CN)[C@@H](O)[C@H](O)[C@H]3N)O[C@@H]2CSCCOCCSSCCOCCSC[C@H]2O[C@H](O[C@@H]3[C@@H](O)[C@H](O[C@H]4O[C@H](CN)[C@@H](O)C[C@H]4N)[C@@H](N)C[C@H]3N)[C@H](O)[C@@H](N)[C@@H]2O)[C@H](N)[C@@H](O)[C@@H]1O (some centres undefined)	6.54
NC[C@H]1O[C@H](O[C@H]2[C@H](O)[C@@H](O[C@H]3O[C@H](CSCCOCCSSCCOCCSC[C@H]4O[C@H](O[C@@H]5[C@@H](O)[C@H](O[C@H]6O[C@H](CN)[C@@H](O)C[C@H]6N)[C@@H](N)C[C@H]5N)[C@H](O)[C@@H](N)[C@@H]4O)[C@@H](O)[C@H](N)[C@H]3O)[C@H](N)C[C@@H]2N)[C@H](N)C[C@@H]1O	5.74
CN(C)C1=CC2Oc3cc(N(C)C)ccc3C(c3ccc(C(=O)NC[C@@H]4O[C@H](O[C@H]5[C@@H](O)[C@H](O[C@@H]6[C@H](O)[C@H](N)C[C@@H](N)[C@H]6O[C@H]6O[C@@H](CO)[C@@H](O)[C@H](O)[C@@H]6N)O[C@@H]5CO)[C@H](N)[C@H](O)[C@@H]4O)cc3C(=O)O)=C2C=C1 (some centres undefined)	6.55

* * *

Measured Kd values are reported for all entries that follow.
# MEASUREMENT_DESCRIPTION: Dissociation constant with dimeric 16S rRNA RNA construct B
RESULT_TYPE: Kd (nM)

COMPOUND	UOM	VALUE
NC[C@H]1O[C@H](O[C@H]2[C@H](O)[C@@H](O[C@H]3O[C@H](CO)[C@@H](O)[C@H](N)[C@H]3O)[C@H](N)C[C@@H]2N)[C@H](N)C[C@@H]1O [TOBRAMYCIN]	nM	1680
NC[C@@H]1O[C@H](O[C@@H]2[C@H](O[C@@H]3OC(CSCCOCCSCC(O)CN4C(=O)c5ccc6c7c(ccc(c57)C4=O)C(=O)N(CC(O)CSCCOCCSC[C@H]4O[C@@H](O[C@H]5[C@H](O)[C@@H](N)C[C@@H](N)[C@@H]5O[C@H]5O[C@H](CN)[C@@H](O)[C@H](O)[C@H]5N)[C@H](O)[C@@H]4O[C@H]4O[C@@H](CN)[C@@H](O)[C@H](O)[C@H]4N)C6=O)[C@@H](O[C@@H]4O[C@H](CN)[C@H](O)C(O)[C@H]4N)[C@H]3O)[C@@H](O)[C@@H](N)C[C@@H]2N)[C@@H](N)[C@@H](O)[C@@H]1O (some centres not stated)	nM	10
